- Test system: HOP-62
- test_name: NCI tumour cell line growth inhibition, 48 h
The source made the active and inactive calls. No stated cut-off is given here; in the data, active = GI50 up to about 1.1 µM and inactive = higher.
Classes used: active, inactive

> print(dat)
                                    compound  assigned.class
 1  Nc1[nH]c(=S)[nH]c(=O)c1/N=N/c1c(Br)cc(S(N)(=O)=O)cc1Br        inactive
 2     COc1ccc(C(=O)/C=C/c2ccc(OCC#N)cc2)cc1        inactive
 3  CC1=NN(C(=O)CC(=O)Nc2ccccc2)C(=O)C1/N=N/c1ccc(S(N)(=O)=O)cc1 (stereo unspecified)        inactive
 4  CCOC(=O)c1c(N2CCOCC2)[nH]c(=O)c(C(c2ccc(Cl)c([N+](=O)[O-])c2)c2c(O)c(C(=O)OCC)c(N3CCOCC3)[nH]c2=O)c1O        inactive
 5       O=C(/C=C/c1ccc(O)cc1)c1cc(O)cc(O)c1        inactive
 6  COc1ccc(/C=C2\N=C3Sc4c([nH]cnc4=O)N3C2=O)cc1        inactive
 7     Clc1ccc(Cc2nc3cc4ccccc4cc3[nH]2)cc1Cl        inactive
 8  O=C(c1ccccc1)C1C(C(=O)c2ccccc2)N1Cc1ccccc1 (stereo unspecified)        inactive
 9  CC1=C/C(=N\N(C)C)C(C(O)(C(F)(F)F)C(F)(F)F)C(C)(C)C1 (stereo unspecified)        inactive
10  COc1cc(Nc2nc3ccc(C(F)(F)F)cc3nc2-c2ccccc2)cc(OC)c1OC        inactive
11             CC1(C)CC2CC(CC(C)(C)C2=O)C1=O        inactive
12  COc1ccc2nc3cc([N+](=O)[O-])ccc3c(NNc3ccc([N+](=O)[O-])cc3)c2c1        inactive
13  CC(C)(C)OC(=O)CC(NC(=O)OC(C)(C)C)C(=O)N[C@@H]1CCCC[C@H]1C(=O)OCc1ccccc1 (stereo partly specified)        inactive
14  COC(=O)c1c(C)cccc1C1CN=NC12Cc1ccc(C)cc1C2=O (stereo unspecified)        inactive
15  O=C(O)CSCc1cc2c(O)c(c1)Cc1cc(CSCC(=O)O)cc(c1O)Cc1cc(CSCC(=O)O)cc(c1O)Cc1cc(CSCC(=O)O)cc(c1O)C2        inactive
16       Cc1ccnc2nc(-c3cccc4ccccc34)cc(O)c12          active
17  O=[N+]([O-])/C(C(Cl)=C(Cl)Cl)=C(\Nc1cccc2cccnc12)Sc1ccccc1        inactive
18  Brc1ccc2c(c1)C1(c3cc(Br)ccc3-2)c2cc(Br)ccc2-c2ccc(Br)cc21        inactive
19                 CCNc1ccc2c(c1)Cc1ccccc1-2        inactive
20                  COc1cccc(/N=N/N2CCCC2)c1        inactive
21             O=C(O)CSc1nnc(Cc2ccccc2)[nH]1        inactive
22             Cn1cnnc1SC(F)(F)c1nc2ccccc2o1        inactive
23              C1=Nc2sc3c(c2C2=NCCN12)CCCC3        inactive
24  C/C(=C/c1ccccc1)CN(C(=O)/C=C\Sc1ccccc1)C(C)(C)C        inactive
25       NCCCN(CCCN)CCc1cn(C(=O)c2ccccc2)cn1        inactive
26  CCC(C)C(C(=O)N/N=C1/SCC(=O)N1c1ccccc1)C(=O)N/N=C1/SCC(=O)N1c1ccccc1 (stereo unspecified)        inactive
27  COc1ccccc1C1=C2C(=O)N(C)C(c3ccccc3OC)=C2C(=O)N1C        inactive
28  CC(O[Si](C)(C)C)C1C=CC(C)n2c(=O)n(-c3ccccc3)c(=O)n21 (stereo unspecified)        inactive
29  Cc1cccc2c1NC(c1c(C)[nH]c3ccccc13)C2 (stereo unspecified)        inactive
30         COc1cccc(-c2cc(O)c3cc(C)cnc3n2)c1          active
31  Cc1c(C)c(S(=O)(=O)N(CCCCCCN)OCCCN)c(C)c2c1OC(C)(C)CC2        inactive
32  O=C(CCc1ccc(O)c(O)c1)NCCc1cc(O)c(O)c(O)c1        inactive
33                         Cc1nnc2sc(NN)nn12        inactive
34  CC(CCCCNC(=O)OC(C)(C)C)NC(=O)NC(C)CCCCNC(=O)OC(C)(C)C (stereo unspecified)        inactive
35              CC1=NN(C(=O)c2ccncc2)C(=O)C1        inactive
36  CCN(CC)C1Oc2cc3c(cc2C(c2cccc(OC)c2OC)C1C)OCO3 (stereo unspecified)        inactive
37  COC(=O)C(=C/c1ccc(OC)cc1)/C(C(=O)O)=C(/C)c1ccccc1        inactive
38  CC(C)(C)OC(=O)NC(CO)c1cccc(OCc2ccccc2)c1 (stereo unspecified)        inactive
39  CCCc1cc(O)c2c(C)c3[nH]c4ccc(Cl)cc4c3c(C)c2n1        inactive
40  C=C(c1ccccc1N)[C@@]1(O)C[C@H](/C(=C\C)CO)C[C@@H]1NCc1ccccc1        inactive
41   O=C(NC/C(Cl)=C/Cl)Nc1c2ccccc2nc2ccccc12        inactive

###

- Test system: OVCAR-3
- test_name: NCI tumour cell line growth inhibition, 48 h
Active and inactive are the calls of the source. Cut-off read from the data, not from the text of the source: active = GI50 up to about 1.1 µM and inactive = higher.
Outcome codes: TRUE (active), FALSE (inactive)

> print(dat)
                               query.smiles  system.name  assigned.class
1   Cc1ccccc1NC(=S)N/N=C(/c1ccccc1)c1ccccn1      OVCAR-3            TRUE
2  C#CC[C@@]12CC(=O)C[C@@H]1CCC1(C2)OCCO1.C#CC[C@]12CC(=O)CC[C@H]1CC(=O)C2      OVCAR-3           FALSE
3        Sc1nnc(/C=C/c2ccc(Cl)c(Cl)c2)[nH]1      OVCAR-3           FALSE
4  COc1cc(CCCl)c(CC2=NCCc3cc(OC)c(OC)cc32)cc1OC      OVCAR-3           FALSE
5  O=C(CSCC(=O)N/N=C/c1ccc2c(c1)OCO2)N/N=C/c1ccc2c(c1)OCO2      OVCAR-3           FALSE

###

- Test system: SF-539
- test_name: NCI tumour cell line growth inhibition, 48 h
Calls of active or inactive are those of the source. Rule as the data show it: active = GI50 up to about 1.1 µM and inactive = higher.
recorded_endpoint: GI50

> print(dat)
                                    molecule      measured.result
 1  O=[N+]([O-])c1ccc(-[n+]2ccc3ccccc3c2)c([N+](=O)[O-])c1   5.21 µM (inactive)
 2  Cc1ccc(NC(=O)C2C(=O)N(c3ccc(C)c(C)c3)C(=O)/C2=N/O)cc1C (stereo unspecified)  > 100 µM (inactive)
 3  COc1ccc2c(ccc3c(COC(=O)NC(C)C)c(COC(=O)NC(C)C)n(C)c32)c1   5.82 µM (inactive)
 4  Nc1nn(CC(O)CO)c(=O)s1 (stereo unspecified)  > 100 µM (inactive)
 5  O=C(c1ccccc1)C(c1ccccc1)C1(O)C(=O)Nc2c(Cl)ccc(Cl)c21 (stereo unspecified)   20.3 µM (inactive)
 6                    COc1ccc(Sc2ccccc2N)cc1   29.6 µM (inactive)
 7             CC1(C)CC2CC(CC(C)(C)C2=O)C1=O  > 100 µM (inactive)
 8       CC(C)=CC(=O)Oc1ccc([N+](=O)[O-])cc1  > 100 µM (inactive)
 9            CCSC1(SCC)CCN(/C=N/C(C)(C)C)C1  > 100 µM (inactive)
10        C/C(CC(=O)Nc1cccc(C)c1C)=N\NC(N)=S  > 100 µM (inactive)
11  Brc1ccc2c(c1)C1(c3cc(Br)ccc3-2)c2cc(Br)ccc2-c2ccc(Br)cc21  > 100 µM (inactive)

###

- Tested on: 786-0
- test_name: NCI tumour cell line growth inhibition, 48 h
Activity calls are given as the source filed them. No stated cut-off is given here; in the data, active = GI50 up to about 1.1 µM and inactive = higher.
recorded_endpoint: GI50

> print(dat)
                                    compound      measured.result
 1  Cc1cccc2c1NC(c1c(C)[nH]c3ccccc13)C2 (stereo unspecified)  > 100 µM (inactive)
 2              CN(C)Cc1cc(C=O)cc(CN(C)C)c1O  > 100 µM (inactive)
 3  CC(C)[C@H]1CO[C@]2(C)[C@@H]3CN(Cc4ccccc4)C[C@@H]3C(=O)N12  > 100 µM (inactive)
 4  COc1cc(/C=C2\NC(=O)C(Cc3cc(OC)c(OC)c(C)c3OC)N(C(C)=O)C2=O)c(OC)c(C)c1OC (stereo unspecified)  > 100 µM (inactive)
 5  C=C(C)C1CCC2(C)CC1c1c(c(C)cc3c1[nH]c1ccccc13)O2 (stereo unspecified)   > 25 µM (inactive)
 6    CC(=O)N(C(C)=O)n1c(-c2ccccc2)n[nH]c1=O  > 100 µM (inactive)
 7             CSc1c2c(C)n[nH]c2nn1-c1ccccc1   66.8 µM (inactive)
 8       c1ccc2c(c1)cc1c3[nH]c4ccccc4c3ccn21   > 10 µM (inactive)
 9  NC1=C2C(Br)=CN([C@@H]3O[C@H](CO)[C@@H](O)[C@@H]3O)C2C(=O)N=N1 (stereo partly specified)   12.4 µM (inactive)
10  CC(C)c1ccc(C2C3=C(N=C4SCC(=O)N42)C(=O)c2ccccc23)cc1 (stereo unspecified)  > 100 µM (inactive)
11  COc1ccc(C2CCc3nc4nc(N)nc(N)c4cc3C2)cc1 (stereo unspecified)   3.13 µM (inactive)
